# Test system: Staphylococcus aureus (ATCC 29213)
# Experiment notes: MIC against nonmycobacteria (OD570)
# Type: cell-based
# Run conditions: ATCC29213, S. aureus
Numbered stars: 1 amine (or outer) side, 2 acyl side, 3 side chain; on linkers, the order of the positions; unused ones are H or OH. Bridge positions count the residues as written; N and C are the ends. Square brackets hold non-standard residues; d marks the D form. Peptide text beside a SMILES is read from it. * marks the point of attachment. ξ: configuration not given here. NMeTrp(4-OMe) = CN[CH](Cc1c[nH]c2cccc(OC)c12)C(=O)O; X1 = O=C(C(N[*:1])C(O)c1ccccc1)[*:2]; NMeI = CC[CH](C)[CH](NC)C(=O)O; ξNMe2Val = CC(C)C(C(=O)*)N(C)C; NMeT = CN[CH](C(=O)O)[CH](C)O; NMeL = CN[CH](CC(C)C)C(=O)O; NMeV = CN[CH](C(=O)O)C(C)C

# Molecule, MIC
records = [
    ("CCC(C)C(C(=O)NC1C(=O)N(C)C(C(C)O)C(=O)NC(C(C)C)C(=O)N(C)C(CC(C)C)C(=O)NC(C(C)C)C(=O)N(C)C(C(C)C)C(=O)N(C)C(Cc2c[nH]c3cccc(OC)c23)C(=O)NC(C(C)C)C(=O)NC(C(O)c2ccccc2)C(=O)NC(C(C)C)C(=O)OC1C)N(C)C(=O)C(NC(=O)C(C(C)C)N(C)C)C(C)C (stereo not shown) [ECU, ecumicin] (ξNMe2Val-V[NMeI]T[NMeT]V[NMeL]V[NMeV][NMeTrp(4-OMe)]V[X1]V; ester 3-C; configuration not given here)", "> 32 µM"),
    ("C/C=C/C[C@@H]1NC(=O)[C@H](CC(C)C)N2C(=O)C(C[C@H](C)[C@H]2O)N(C)C(=O)[C@H](C)NC(=O)[C@H](Cc2ccc(O)c([N+](=O)[O-])c2)NC(=O)[C@H](CC(C)C)N(C)C(=O)[C@H](Cc2cn(C(C)(C)C3CO3)c3ccccc23)NC1=O (stereo partly shown) [RUFI, rufomycin I]", "> 10 µM"),
    ("CO[C@H](c1ccccc1)[C@@H]1NC(=O)[C@H](C)NC(=O)[C@H](C[C@@H](C)CO)N(C)C(=O)[C@H]([C@H](O)c2cn(C(C)(C)[C@@H]3CO3)c3ccccc23)NC(=O)[C@H]([C@H](C)C=C(C)C)NC(=O)[C@H](CC(C)C)N(C)C(=O)[C@H](C(C)C)NC1=O (stereo in doubt) [CYMA, cyclomarin A]", "> 10 µM"),
    ("CNC(C)C1CCC(N)C(OC2C(N)CC(N)C(OC3OCC(C)(O)C(NC)C3O)C2O)O1 (stereo not shown) [GEN, gentamicin]", "0.33 µM"),
]

---

# Test system: M. tuberculosis strain H37Rv (ATCC 27294)
# Experiment notes: microbe, parasite or virus in culture
# Assay type: cell-based, Mycobacterium tuberculosis
# Run conditions: Mycobacterium tuberculosis, read-out: MIC against M. tuberculosis
Numbered stars: 1 amine (or outer) side, 2 acyl side, 3 side chain; on linkers, the order of the positions; unused ones are H or OH. Square brackets hold non-standard residues; d marks the D form. Peptide text beside a SMILES is read from it. ξ: configuration not given here. Trp(1-(1,1-Me2-allyl)) = C=CC(C)(C)n1cc(C[C@H](N)C(=O)O)c2ccccc21; X4 = CC(C)(C1CO1)n1cc(C[C@H](N[*:1])C(=O)[*:2])c2ccccc21; Tyr(3-NO2) = N[C@@H](Cc1ccc(O)c([N+](=O)[O-])c1)C(=O)O; X3 = CC(CC(C(=O)[*:2])N(C)[*:1])C(=O)O; Gly(E-crotyl) = C/C=C/C[C@H](N)C(=O)O; NMeL = CN[C@@H](CC(C)C)C(=O)O; ξNMeL = CNC(CC(C)C)C(=O)O
Measured metric: MIC (µM)

# Compound, Measured metric, Qualifier, Recorded result
measured = [
    ("C/C=C/C[C@@H]1NC(=O)[C@H](CC(C)C)N2C(=O)C(C[C@H](C)[C@H]2O)N(C)C(=O)[C@H](C)NC(=O)[C@H](Cc2ccc(O)c([N+](=O)[O-])c2)NC(=O)[C@H](CC(C)C)N(C)C(=O)[C@H](Cc2cn(C(C)(C)C3CO3)c3ccccc23)NC1=O (stereo partly drawn)", "MIC", "=", 0.01),
    ("C=CC(C)(C)n1cc(C[C@@H]2NC(=O)[C@H](C/C=C/C)NC(=O)[C@H](CC(C)C)NC(=O)C(CC(C)C)N(C)C(=O)[C@H](C)NC(=O)[C@H](Cc3ccc(O)cc3)NC(=O)[C@H](CC(C)C)N(C)C2=O)c2ccccc21 (stereo partly drawn) [VI] (cyclo(A[ξNMeL]L[Gly(E-crotyl)][Trp(1-(1,1-Me2-allyl))][NMeL]Y))", "MIC", ">", 50),
    ("C/C=C/C[C@@H]1NC(=O)[C@H](CC(C)C)NC(=O)C(CC(C)C(=O)O)N(C)C(=O)[C@H](C)NC(=O)[C@H](Cc2ccc(O)c([N+](=O)[O-])c2)NC(=O)[C@H](CC(C)C)N(C)C(=O)[C@H](Cc2cn(C(C)(C)C3CO3)c3ccccc23)NC1=O (stereo partly drawn) [VII] (cyclo(A[X3]L[Gly(E-crotyl)][X4][NMeL][Tyr(3-NO2)]))", "MIC", "=", 1),
]

---

# Experiment notes: in vivo
# Parameters: species or system BALB/c mice
# Run conditions: female, BALB/c, mouse, in vivo, iv; mice, single i.v. 5 mg/kg, plasma, mean n = 3; read-out: terminal half-life (converted)
Measured metric: half-life (h)

# Molecule, Recorded result
records = [
    ("C/C=C/C[C@@H]1NC(=O)[C@H](CC(C)C)N2C(=O)C(C[C@H](C)[C@H]2O)N(C)C(=O)[C@H](C)NC(=O)[C@H](Cc2ccc(O)c([N+](=O)[O-])c2)NC(=O)[C@H](CC(C)C)N(C)C(=O)[C@H](Cc2cn(C(C)(C)C3CO3)c3ccccc23)NC1=O (stereo partly shown) [RUFI, rufomycin I]", 1),
]

---

# Test system: M. tuberculosis strain H37Rv (ATCC 27294)
# Experiment notes: microbe, parasite or virus in culture
# Type: cell-based, Mycobacterium tuberculosis
# Run conditions: Mycobacterium tuberculosis, read-out: MIC against M. tuberculosis
Numbered stars: 1 amine (or outer) side, 2 acyl side, 3 side chain; on linkers, the order of the positions; unused ones are H or OH. Square brackets hold non-standard residues; d marks the D form. Peptide text beside a SMILES is read from it. ξ: configuration not given here. X4 = CC(C)(C1CO1)n1cc(C[C@H](N[*:1])C(=O)[*:2])c2ccccc21; Tyr(3-NO2) = N[C@@H](Cc1ccc(O)c([N+](=O)[O-])c1)C(=O)O; Gly(E-crotyl) = C/C=C/C[C@H](N)C(=O)O; NMeL = CN[C@@H](CC(C)C)C(=O)O; ξNMeL = CNC(CC(C)C)C(=O)O
Measured metric: MIC (µM)

# Molecule, Target system, Measured metric, Reading unit, Recorded result
records = [
    ("C=CC(C)(C)n1cc(C[C@@H]2NC(=O)[C@H](C/C=C/C)NC(=O)[C@H](CC(C)C)N3CC(C)CC(C3=O)N(C)C(=O)[C@H](C)NC(=O)[C@H](Cc3ccc(O)c([N+](=O)[O-])c3)NC(=O)[C@H](CC(C)C)N(C)C2=O)c2ccccc21 (stereo partly shown) [III]", "M. tuberculosis strain H37Rv (ATCC 27294)", "MIC", "µM", 1),
    ("C/C=C/C[C@@H]1NC(=O)[C@H](CC(C)C)NC(=O)C(CC(C)C)N(C)C(=O)[C@H](C)NC(=O)[C@H](Cc2ccc(O)c([N+](=O)[O-])c2)NC(=O)[C@H](CC(C)C)N(C)C(=O)[C@H](Cc2cn(C(C)(C)C3CO3)c3ccccc23)NC1=O (stereo partly shown) [V] (cyclo(A[ξNMeL]L[Gly(E-crotyl)][X4][NMeL][Tyr(3-NO2)]))", "M. tuberculosis strain H37Rv (ATCC 27294)", "MIC", "µM", 0.07),
    ("C/C=C/C[C@@H]1NC(=O)[C@H](CC(C)C)NC(=O)C(CC(C)C)N(C)C(=O)[C@H](C)NC(=O)[C@H](Cc2ccc(O)c([N+](=O)[O-])c2)NC(=O)[C@H](CC(C)C)NC(=O)[C@H](Cc2cn(C(C)(C)C3CO3)c3ccccc23)NC1=O (stereo partly shown) [IV] (cyclo(A[ξNMeL]L[Gly(E-crotyl)][X4]L[Tyr(3-NO2)]))", "M. tuberculosis strain H37Rv (ATCC 27294)", "MIC", "µM", 0.58),
    ("C/C=C/C[C@@H]1NC(=O)[C@H](CC(C)C)N2C(=O)C(C[C@@H](C)[C@H]2O)N(C)C(=O)[C@H](C)NC(=O)[C@H](Cc2ccc(O)c([N+](=O)[O-])c2)NC(=O)[C@H](CC(C)C)N(C)C(=O)[C@H](Cc2cn(C(C)(C)C3CO3)c3ccccc23)NC1=O (stereo partly shown) [II]", "M. tuberculosis strain H37Rv (ATCC 27294)", "MIC", "µM", 0.05),
]

Data credit: paper PMC6395927
